Data origin: patent EP4768499A1

assay: Membrane permeability test using Caco-2 cells with preincubation; type: in vitro ADME; details: Caco-2; preincubation 20 to 24 hours; Apical FaSSIF/HBSS pH 6.0, Basal HBSS 4% BSA pH 7.4; 180 minutes; read-out: Caco2 Papp
Starred links: 1 amine or outer side, 2 acyl side, 3 side chain; linkers in the order of their positions; H or OH if unused. Positions of bridges follow the written chain, without caps; N, C: chain ends. Non-standard residues stand in square brackets, D forms with d. Residues, ends and D or L forms follow the SMILES beside them. *: point of attachment. NMeF = CN[C@@H](Cc1ccccc1)C(=O)O; NMeI = CC[C@H](C)[C@H](NC)C(=O)O; NMeT = CN[C@H](C(=O)O)[C@@H](C)O; hPhe = N[C@@H](CCc1ccccc1)C(=O)O; NMeβAla = CN(CCC(=O)[*:2])[*:1]; NMeD = CN[C@@H](CC(=O)O)C(=O)O; NMeL = CN[C@@H](CC(C)C)C(=O)O; NMeV = CN[C@H](C(=O)O)C(C)C; NMeAbu = CC[C@H](NC)C(=O)O; NMeA = CN[C@@H](C)C(=O)O; Piperidide = C1CCN(*)CC1; Abu = CC[C@H](N)C(=O)O; Sar = CNCC(=O)O; tBu = CC(C)(C)*
Would you mind telling me the reported Papp A→B of each entry?
One number for each entry, in ×10⁻⁶ cm/s.

>  <compound>
CC[C@H](C)[C@@H]1NC(=O)[C@H](CC(C)C)N(C)C(=O)CN(C)C(=O)C[C@@H](C(=O)N2CCCCC2)N(C)C(=O)CNC(=O)[C@H](C)N(C)C(=O)[C@H](CC)N(C)C(=O)[C@H](C(C)C)N(C)C(=O)[C@H](C)N(C)C(=O)[C@H](Cc2ccccc2)N(C)C(=O)[C@H](CC(C)C)NC(=O)[C@H](Cc2ccccc2)N(C)C(=O)[C@H](C(C)C)NC(=O)[C@H](CC(C)C)N(C)C1=O [pd085] ([Sar][NMeL]I[NMeL]V[NMeF]L[NMeF][NMeA][NMeV][NMeAbu][NMeA]G[NMeD]-Piperidide; lactam N-14)

>  <experimental_endpoint>
Papp A→B

>  <recorded_number>
0.17

$$$$
>  <compound>
CC(C)C[C@@H]1NC(=O)[C@H](CC(C)C)N(C)C(=O)[C@H](C(C)C)N(C)C(=O)[C@H](CCc2ccccc2)NC(=O)[C@H]([C@@H](C)O)N(C)C(=O)[C@@H](C(C)C)NC(=O)C[C@@H](C(=O)N2CCCCC2)NC(=O)[C@H](C(C)C)N(C)C(=O)[C@H](CC(C)C)NC(=O)[C@H](Cc2ccccc2)N(C)C(=O)[C@@H]2CCCN2C(=O)[C@H](CC(C)C)N(C)C(=O)CN(C)C1=O [pd107] ([dV][NMeT][hPhe][NMeV][NMeL]L[Sar][NMeL]P[NMeF]L[NMeV]D-Piperidide; lactam N-13)

>  <experimental_endpoint>
Papp A→B

>  <recorded_number>
0.81

$$$$
>  <compound>
CC[C@@H]1NC(=O)[C@H](Cc2ccccc2)N(C)C(=O)[C@H]([C@@H](C)CC)NC(=O)[C@H](CC(C)C)N(C)C(=O)[C@H](CC(C)C)NC(=O)CCN(C)C(=O)C[C@@H](C(=O)N2CCCCC2)NC(=O)[C@H](CC(C)C)N(C)C(=O)[C@H](C)N(C)C(=O)[C@H]([C@@H](C)O)NC(=O)[C@H](CC(C)C)N(C)C(=O)[C@H](C(C)C)NC(=O)[C@H](Cc2ccccc2)N(C)C1=O [pd101] ([NMeβAla]L[NMeL]I[NMeF][Abu][NMeF]V[NMeL]T[NMeA][NMeL]D-Piperidide; lactam N-13)

>  <experimental_endpoint>
Papp A→B

>  <recorded_number>
0.16

$$$$

**Query** Report Papp A→B for CC[C@H](C)[C@H]1C(=O)N[C@@H]([C@@H](C)O)C(=O)N(C)CC(=O)N(C)[C@@H](CC(C)C)C(=O)N(C)[C@@H](Cc2ccccc2)C(=O)N[C@H](C(=O)N2CCCCC2)CC(=O)N(C)[C@@H](C)C(=O)N[C@@H](CC(C)C)C(=O)N(C)[C@@H](Cc2ccccc2)C(=O)N(C)[C@@H](C)C(=O)N(C)[C@@H](CC(C)C)C(=O)N[C@@H](COC(C)(C)C)C(=O)N(C)[C@@H](C)C(=O)N[C@@H](CC(C)C)C(=O)N1C [pd044] ([NMeA]L[NMeF][NMeA][NMeL]S(tBu)[NMeA]L[NMeI]T[Sar][NMeL][NMeF]D-Piperidide; lactam N-14) please.
**Result** 0.83

###

Assay: Membrane permeability test using Caco-2 cells with preincubation
Type: in vitro ADME
Settings: Caco-2; preincubation 20 to 24 hours; Apical FaSSIF/HBSS pH 6.0, Basal HBSS 4% BSA pH 7.4; 180 minutes; read-out: Caco2 Papp
Description: The permeability coefficient (Caco-2 Papp (cm/sec)) is calculated using a numerical expression 1. [Expression 1] Papp = (1)/(C1 (0) × S) × (dQ)/(dt) [formula] dQ/dt represents the permeation rate of drug (the amount of drug appearing on the Basal side per unit time), S represents the total surface area of cells, and C1(0) represents the concentration of drug added on the Apical side. […]
Starred links: 1 amine or outer side, 2 acyl side, 3 side chain; linkers in the order of their positions; H or OH if unused. Positions of bridges follow the written chain, without caps; N, C: chain ends. Non-standard residues stand in square brackets, D forms with d. Residues, ends and D or L forms follow the SMILES beside them. *: point of attachment. NMeF = CN[C@@H](Cc1ccccc1)C(=O)O; NMeI = CC[C@H](C)[C@H](NC)C(=O)O; hPhe = N[C@@H](CCc1ccccc1)C(=O)O; NMeβAla = CN(CCC(=O)[*:2])[*:1]; NMeD = CN[C@@H](CC(=O)O)C(=O)O; NMeL = CN[C@@H](CC(C)C)C(=O)O; dNMeV = CN[C@@H](C(=O)O)C(C)C; NMeV = CN[C@H](C(=O)O)C(C)C; NMeAbu = CC[C@H](NC)C(=O)O; NMeA = CN[C@@H](C)C(=O)O; Piperidide = C1CCN(*)CC1; NBuGly = CCCCNCC(=O)O; βAla = NCCC(=O)O; Sar = CNCC(=O)O; tBu = CC(C)(C)*
Label scheme for Papp A→B: lower than 0.2 ×10⁻⁶ cm/s is No, 0.2 ×10⁻⁶ cm/s and above is Yes.

Recorded results for 3 compounds are shown here.
>  <compound>
CC[C@H]1C(=O)N(C)CC(=O)N(C)[C@@H](CC(C)C)C(=O)N[C@@H](COC(C)(C)C)C(=O)N(C)[C@@H](C)C(=O)N(C)[C@@H](Cc2ccccc2)C(=O)N(C)CC(=O)N(C)[C@H](C(=O)N2CCCCC2)CC(=O)N[C@H](C(C)C)C(=O)N(C)[C@@H](Cc2ccccc2)C(=O)NCCC(=O)N(C)[C@@H](C(C)C)C(=O)N[C@@H]([C@@H](C)O)C(=O)N(C)[C@@H](CC(C)C)C(=O)N1C [pd094] ([dV][NMeF][βAla][NMeV]T[NMeL][NMeAbu][Sar][NMeL]S(tBu)[NMeA][NMeF][Sar][NMeD]-Piperidide; lactam N-14)

>  <label_class>
No

$$$$
>  <compound>
CCCCN1CC(=O)N(C)[C@@H](Cc2ccccc2)C(=O)N[C@@H](COC(C)(C)C)C(=O)N(C)[C@@H](CC(C)C)C(=O)NCCC(=O)N(C)[C@@H](C)C(=O)N(C)[C@@H]([C@@H](C)CC)C(=O)N[C@@H](CC(C)C)C(=O)N(C)[C@H](C(=O)N2CCCCC2)CC(=O)N(C)CCC(=O)N(C)[C@@H](CC(C)C)C(=O)N[C@@H]([C@@H](C)CC)C(=O)N(C)[C@@H](Cc2ccccc2)C1=O [pd154] ([NMeβAla][NMeL]I[NMeF][NBuGly][NMeF]S(tBu)[NMeL][βAla][NMeA][NMeI]L[NMeD]-Piperidide; lactam N-13)

>  <label_class>
Yes

$$$$
>  <compound>
CC(C)C[C@@H]1NC(=O)[C@H](C(C)C)N(C)C(=O)[C@H](Cc2ccccc2)N(C)C(=O)[C@H](COC(C)(C)C)NC(=O)[C@H](CC(C)C)N(C)C(=O)[C@H](C)N(C)C(=O)[C@H]([C@@H](C)O)NC(=O)[C@H](CC(C)C)N(C)C(=O)[C@H](C(C)C)N(C)C(=O)[C@H](CCc2ccccc2)NC(=O)[C@H](CC(C)C)N(C)C(=O)[C@@H](C(C)C)N(C)C(=O)C[C@@H](C(=O)N2CCCCC2)N(C)C1=O [pd161] ([dNMeV][NMeL][hPhe][NMeV][NMeL]T[NMeA][NMeL]S(tBu)[NMeF][NMeV]L[NMeD]-Piperidide; lactam N-13)

>  <label_class>
No

$$$$

**Query** Is Papp A→B for CC[C@H](C)[C@@H]1NC(=O)[C@H](CC(C)C)N(C)C(=O)[C@H](CC(C)C)N(C)C(=O)[C@H](C)N(C)C(=O)C[C@@H](C(=O)N2CCCCC2)N(C)C(=O)[C@H](C)N(C)C(=O)[C@H](CC(C)C)NC(=O)[C@H](C(C)C)N(C)C(=O)[C@H](CC(C)C)N(C)C(=O)CNC(=O)[C@H]([C@@H](C)CC)N(C)C(=O)[C@H](Cc2ccccc2)N(C)C(=O)[C@H](C)NC(=O)[C@H](Cc2ccccc2)N(C)C1=O [pd084] ([NMeA][NMeL][NMeL]I[NMeF]A[NMeF][NMeI]G[NMeL][NMeV]L[NMeA][NMeD]-Piperidide; lactam N-14) at or above 0.2 ×10⁻⁶ cm/s?
**Result** Yes
